- EXPERIMENT: in vitro
- STUDY CONDITIONS: rat, gh3-tre-luc cells, AC50 (uM) modified / 1000
Structures can show the parent of a compound that is named as a salt.
RESULT TYPE: CC50 at 24 h

# example entries with known answers
O=[N+]([O-])c1cccc(S(=O)(=O)NCCNS(=O)(=O)c2cccc([N+](=O)[O-])c2)c1	> 50 µM
Cc1ccc(O)c([N+](=O)[O-])c1	> 90 µM
OC[C@H](Cc1cccc(O)c1)[C@H](CO)Cc1cccc(O)c1 [(-)-Enterodiol]	> 90 µM
CCC(C)(Oc1ccc(C2(c3ccc(OC(C)(CC)C(=O)O)cc3)CCCCC2)cc1)C(=O)O (centres unmarked) [Clinofibrate]	> 50 µM
CCOC(=O)COc1ccc2c(=O)cc(-c3ccccc3)oc2c1 [Efloxate]	> 50 µM
CS(=O)(=O)NC(=O)c1cc(Oc2ccc(C(F)(F)F)cc2Cl)ccc1[N+](=O)[O-]	> 90 µM
CCC1(C2=NCCN2)Cc2ccccc2O1 (centres unmarked)	> 50 µM
C/N=C(\NC)NCc1ccccc1 [Bethanidine sulfate (2:1)]	> 50 µM
c1ccncc1 [Pyridine hydrochloride]	> 90 µM
CCCOC(=O)c1ccccc1C(=O)OCCC [Dipropyl phthalate]	> 90 µM

Proceeding to the next compound to report its CC50 at 24 h.
Prompt: Indicate the recorded CC50 at 24 h value for this compound: CC1(C)[C@@H](OC(=O)CCC(=O)O)CC[C@]2(C)[C@H]3C(=O)C=C4[C@@H]5C[C@@](C)(C(=O)O)CC[C@]5(C)CC[C@@]4(C)[C@]3(C)CC[C@@H]12 [Carbenoxolone sodium]
Completion: > 20 µM

----------
- SYSTEM TESTED: TRα ligand-binding domain (Homo sapiens, UniProt P10827)
- Construct: the receptor LBDs expressed as glutathione S-transferase (GST) fusion proteins; purchased
- Sequence (P10827 163-410 isoform P10827-2 limits assumed, other chains not shown): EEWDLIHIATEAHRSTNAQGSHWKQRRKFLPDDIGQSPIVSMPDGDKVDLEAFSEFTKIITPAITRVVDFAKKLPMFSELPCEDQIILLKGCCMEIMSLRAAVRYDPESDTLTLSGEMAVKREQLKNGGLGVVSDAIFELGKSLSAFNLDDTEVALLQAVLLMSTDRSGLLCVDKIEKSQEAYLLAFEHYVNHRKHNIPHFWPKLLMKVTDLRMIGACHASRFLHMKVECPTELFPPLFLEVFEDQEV
- EXPERIMENT: TRa-coa LanthaScreen TR-FRET coactivator (SRC-2 peptide) recruitment, agonist (TOX21_TRA_COA_Agonist_Followup_ratio, aeid 2230)
- Type: biochemical
- STUDY CONDITIONS: read-out: EMax (% of Control) tra-coa-agonist-followup-1
RESULT TYPE: Emax (%)
Note: unit % is implicit; provide only the numeric part.

C[C@]12CC[C@H]3C(=CCc4cc(O)ccc43)[C@@H]1CCC2=O [Equilin, reference compound]	1.7

Prompt: Identify measured Emax obtained with TRα ligand-binding domain (Homo sapiens, UniProt P10827) for CC1=C(/C=C/C(C)=C/C=C/C(C)=C\C(=O)O)C(C)(C)CCC1 [13-cis Retinoic acid, reference compound] .
Completion: -0.319

Prompt: Identify measured Emax obtained with TRα ligand-binding domain (Homo sapiens, UniProt P10827) for CC1=C(/C=C/C(C)=C/C=C/C(C)=C/C(=O)O)C(C)(C)CCC1 [all trans-Retinoic acid, reference compound] .
Completion: -0.347

----------
- EXPERIMENT: in vitro
- STUDY CONDITIONS: rat, gh3-tre-luc cells, AC50 (uM) modified / 1000
Structures can show the parent of a compound that is named as a salt.
Recorded CC50 at 24 h, one value per entry.

# example entries with known answers
NC(N)=O	> 100 µM
CCCN(CCC)S(=O)(=O)c1ccc(C(=O)O)cc1	> 90 µM
CC1(C)S[C@@H]2[C@H](N=CN3CCCCCC3)C(=O)N2[C@H]1C(=O)O	> 50 µM
Cc1nc2c([nH]1)c(=O)n(C)c(=O)n2Cc1ccco1	> 50 µM
Clc1ccc(Nc2nnc(Cc3ccncc3)c3ccccc23)cc1	> 50 µM
CCNC(=O)[C@@H]1CCCN1C(=O)[C@H](CCCNC(=N)N)NC(=O)[C@H](CC(C)C)NC(=O)[C@@H](CC(C)C)NC(=O)[C@H](Cc1ccc(O)cc1)NC(=O)[C@H](CO)NC(=O)[C@H](Cc1c[nH]c2ccccc12)NC(=O)[C@H](Cc1c[nH]cn1)NC(=O)[C@@H]1CCC(=O)N1 [Leuprolide acetate salt]	> 50 µM

Prompt: Indicate the recorded CC50 at 24 h value for this compound: COC(=O)c1ccccc1C(=O)c1ccc(OCCN2CCCCC2)cc1 [Pitofenone hydrochloride]
Completion: 42.7 µM

Prompt: Indicate the recorded CC50 at 24 h value for this compound: `NCCCCCCN`
Completion: > 90 µM

Prompt: Indicate the recorded CC50 at 24 h value for this compound: `CCCCCCCCCCCCCCCC(=O)OC(C)C`
Completion: > 50 µM

Prompt: Indicate the recorded CC50 at 24 h value for this compound: CCOC(=O)c1ccc(C2CCC(NC[C@H](O)COc3ccc(O)c(NS(C)(=O)=O)c3)CC2)cc1 (stereo partly shown)
Completion: 34.8 µM

Prompt: Indicate the recorded CC50 at 24 h value for this compound: CSc1ccc(Cl)cc1 [4-Chlorophenyl methyl sulfide]
Completion: > 90 µM

Prompt: Indicate the recorded CC50 at 24 h value for this compound: `O=S1(=O)CC=CC1`
Completion: > 90 µM

Prompt: Indicate the recorded CC50 at 24 h value for this compound: O=C(CCNNC(=O)c1ccncc1)NCc1ccccc1 [Nialamide]
Completion: > 50 µM

Prompt: Indicate the recorded CC50 at 24 h value for this compound: `C=CC(=O)OCCn1c(=O)n(CCOC(=O)C=C)c(=O)n(CCOC(=O)C=C)c1=O`
Completion: 4.99 µM

Prompt: Indicate the recorded CC50 at 24 h value for this compound: O=C(NCCCN1CCOCC1)c1ccc(Cl)cc1 [Eprobemide]
Completion: > 50 µM

Prompt: Indicate the recorded CC50 at 24 h value for this compound: `C=CC(=O)CC`
Completion: > 90 µM

Prompt: Indicate the recorded CC50 at 24 h value for this compound: `Cc1cc(SC2=C(O)C[C@@](CCc3ccc(N)cc3)(C(C)C)OC2=O)c(C(C)(C)C)cc1CO`
Completion: > 90 µM

Prompt: Indicate the recorded CC50 at 24 h value for this compound: `COC(=O)[C@H]1[C@H]2C[C@@H]3c4[nH]c5cc(OC)ccc5c4CCN3C[C@H]2C[C@@H](OC(=O)COc2ccc(OC)cc2)[C@@H]1OC`
Completion: > 50 µM

Prompt: Indicate the recorded CC50 at 24 h value for this compound: `CC1(C)[C@H](C(=O)OCc2coc(Cc3ccccc3)c2)[C@@H]1/C=C1\CCSC1=O`
Completion: > 90 µM
